Value source: paper PMC2741015

# measurement_target: P. falciparum SHMT (PfSHMT) (Plasmodium falciparum)
# Sequence (Q8I566 whole entry): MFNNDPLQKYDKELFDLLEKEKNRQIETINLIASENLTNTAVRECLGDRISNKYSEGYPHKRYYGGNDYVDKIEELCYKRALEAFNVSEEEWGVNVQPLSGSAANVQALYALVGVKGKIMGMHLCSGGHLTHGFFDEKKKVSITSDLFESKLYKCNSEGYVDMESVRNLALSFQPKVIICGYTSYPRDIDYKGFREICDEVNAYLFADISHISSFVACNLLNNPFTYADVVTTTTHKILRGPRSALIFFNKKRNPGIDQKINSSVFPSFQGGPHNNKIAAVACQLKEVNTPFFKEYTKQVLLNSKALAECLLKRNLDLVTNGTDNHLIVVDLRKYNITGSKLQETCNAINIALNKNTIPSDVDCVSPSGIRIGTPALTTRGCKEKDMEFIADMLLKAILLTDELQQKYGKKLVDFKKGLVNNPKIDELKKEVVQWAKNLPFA
Record form. Attribute: IC50. Fill in for each entry.

The following molecules have reported results that may help.
{"molecule": "Cc1nc2ccc(CN(C)c3ccc(C(=O)N[C@@H](CCC(=O)O)C(=O)O)s3)cc2c(=O)[nH]1", "result": "> 500 µM"}
{"molecule": "CCc1nc(N)nc(N)c1-c1ccc(Cl)cc1", "result": "> 500 µM"}

Answer for every listed entry: what is its IC50? The entries follow.
1. Nc1nc2[nH]cc(CCc3ccc(C(=O)N[C@@H](CCC(=O)O)C(=O)O)cc3)c2c(=O)[nH]1
2. CN(Cc1cnc2nc(N)nc(N)c2n1)c1ccc(C(=O)N[C@@H](CCC(=O)O)C(=O)O)cc1 [methotrexate]

A)
1. > 500 µM
2. > 500 µM
